What growth was measured for each of the following?
Tested on: TK-10 renal
Method description: NCI-60 one-dose screen, 48 h (100 = growth as untreated, 0 = no growth, -100 = all killed)
Recorded conditions: 10 µM unless noted
About 83,000 compounds went through this panel and 20% of them were active in at least one assay; those are over-represented in the sample as a whole.
Answers are plain numbers, in %.

# count of solved cases: 6
> print(dat)
                                 mol.smiles  result
1  COc1cc2cc(Oc3ccc(NC(=O)Nc4cc(C(F)(F)F)cc(C(F)(F)F)c4)cc3)c(C)nc2cc1OCCN1CCOCC1    53.6
2  O=C(/C=C/c1ccc([N+](=O)[O-])o1)NNC(=O)c1cc2ccccc2cc1O    19.3
3  COc1ccc2[nH]c(-c3ccccc3)c(/C=C(\C#N)S(=O)(=O)c3ccccc3)c2c1    92.4
4  O=c1c2cc(F)ccc2sc2c(NCCCNCCO)nc3ccc(F)cc3c12    67.5
5  Cc1ccc(-c2nn(C)c(=O)c3noc(-c4ccc(C)cc4)c23)cc1    47.4
6  CN1CCN(c2ccc(-c3ccc4ncc(C#N)c(Nc5ccc(F)c(Cl)c5)c4c3)cc2)CC1    36.3

# return growth for each item in the list
1. COc1ccc(NC2=C(Br)C(=O)C(C)=C(C)C2=O)cc1
2. Cc1ccc(/C=C2\Oc3ccc(O)c(O)c3C2=O)cc1

# output
172
98

For each listed entry, give its growth.
1. S=c1nc(-c2ccccc2)oc(=NC2CCCCC2)n1C1CCCCC1
2. COc1cccc(-c2nc(-c3ccc(NC(=O)OC(C)C)cc3)[nH]c2-c2ccnc(Br)c2)c1

# output
[32.8, 48.6]
